Target: HLA-A3.2 (A*0301) (Homo sapiens)
Assay: biochemical
Assay type: binding
pIC50: −log10 of the molar value. No end group written: not given here.
Readout label: pIC50

RLLKETELRK [Peptide 9012.0248]    7.57
LVKHHMYVSK [Peptide 9017.0216]    6.24
ATLQDIVLH [Peptide 78.0278]    5.35
CVSHRGLYY [Peptide 88.0401]    7.57
HSRIGILRQR [Peptide 9017.0242]    6.20

---

Target: A*6801 (Homo sapiens, UniProt P04439, A269V/D185E/E176V/E277Q/E87N/F33Y/G231S/I121M/I166T/I218V/L180W/L300P/L318F/N151K/P208A/P217A/Q86R/R169H/T345S)
Assay: biochemical
Type: binding
No end group written: not given here.
Field 'label' (enum: y / n). Set to y when IC50 is strictly under 0.1 µM; else n.

RLECVLMYK [Peptide 1589.12]    n
NTMHYTNWK [Peptide 1589.16]    y
TVQVYFDGNK [Peptide 88.0202]    n
KISEYRHYQY [Peptide 1571.14]    n
ETQRQQFLK [Peptide 1589.32]    y
VTIKIGGQIR [Peptide 1516.05]    y
LLYGAANTGK [Peptide 1587.12]    y

---

Target: DRB3*0101 (Homo sapiens, UniProt P01903+P79483)
Experiment: biochemical
Assay type: binding
No end group written: not given here.
Readout label: IC50

HPLYNMSLLKHQSLR [Peptide 68.0008]    > 20 µM
GIVEQTTTSITSLYQ [Peptide 9000.0054]    > 95.2 µM
EYVLDLYPEPTDLYC [Peptide 1543.12]    0.734 µM
EVFFQRLGIASGRAR [Peptide 68.0115]    > 20 µM
DSVDSVNCGVISAAA [Peptide 1601.24]    > 20 µM
RHLDKKQRFHNIRGR [Peptide 1543.26]    > 20 µM

---

Target: B*5301 (Homo sapiens, UniProt P01889, A329T/A93T/A95T/C349S/D201E/D98Y/E176V/E187L/E204Q/E69T/G107R/I218V/K202T/L105A/L119I/N104I/Q94N/R106L/R155S/R180L/S101N/S121R/S35A/S48A/T118I/V127L/V306I/V36M/Y140S/Y91F)
Assay: biochemical
No end group written: not given here.
Readout label: IC50

TPVNSQLGNI [15.246]    16900 nM
LPVCSFSIF    2.7 nM
SPLLLSTTEQ [15.226]    55 nM
LPGCMFSIF    39 nM
IPFPSSWAF    3.8 nM
FPVRPQVPI    31 nM
IPIPMSWAF    930 nM

---

// reported IC50 per item
Biological target: A*2902 (Homo sapiens, UniProt P04439, A270S/D101N/D185E/E176V/E277Q/E87Q/F33T/G231S/H175R/I121M/I218V/I322F/K168Q/L300P/L318F/M331R/P208A/P217A/Q86L/T323A/T345S/V100A/V358M)
Experiment: biochemical
Type: binding
No end group written: not given here.
Readout label: IC50 (nM)

MSMSQWIKY [Peptide 1580.05]    7.7
IVNRVRQGY [Peptide 1595.07]    2030
QTDYYGLYY [Peptide 1593.06]    38
HTAREKHPEY [Peptide 9018.0006]    4460
SIDWRQRRY [Peptide 9018.0018]    561
VMDDSEIAY [Peptide 1580.07]    95
WFSITNWLWY [Peptide 9015.0159]    30
SSSKVSQNY [Peptide 9015.0011]    1760
LFDQLIHMHY [Peptide 9018.0033]    280
SIDWRLRRY [Peptide 9018.0020]    3310
VSIEWRLRRY [Peptide 9015.0181]    2490

---

Target: HLA-A11 (A*1101) (Homo sapiens, UniProt P04439, A114D/D185E/E176A/F33Y/L180Q/S129P/T187R)
Experiment: biochemical
Format: binding
pIC50: −log10 of the molar value. No end group written: not given here.
Consider the following sequences and their measured pIC50 readings.
Readout label: pIC50

KVSPIVHLK [Peptide 1589.42]    7.52
NTKATLLYK [Peptide 88.0385]    6.96
ALTALITPKK [Peptide 9017.0230]    8.17
KTLEERVKK [Peptide 78.0294]    6.80
VTIYYGVPVWK [Peptide 1525.03]    8.60
AVHLCTETSK [Peptide 88.0230]    7.06
STWHWTSDNK [Peptide 1589.22]    7.77
YSVYGTTLEK [Peptide 78.0054]    7.00
VVCTYSPALNK [Peptide 1556.35]    6.98
TVHVYFDGNK [Peptide 1589.24]    7.21
KTASVGTPK [Peptide 1589.27]    7.89
KQFLQGVPK [Peptide 88.0390]    7.77
VTVYYGVPIWK [Peptide 1525.02]    8.64

---

Target: HLA-A3.2 (A*0301) (Homo sapiens, UniProt P04439)
Test: biochemical
Assay type: binding
pIC50: −log10 of the molar value. No end group written: not given here.
Label -1 if pIC50 falls below 6; label 1 in every other case.

VVVKSPNHVK [Peptide 9012.0255]    1
AFADLTVVYR [Peptide 78.0058]    -1
SVYGETLEK [Peptide 78.0291]    1
KLCLRFLSK [Peptide 1571.20]    1
TVTVSAELPK [Peptide 1556.16]    -1
GVSIEWRKRR [Peptide 9017.0221]    -1
YLALTALIK [Peptide 9017.0097]    1
AFKDLFVVYK [Peptide 88.0024]    -1
ESKKEVESK [Peptide 9017.0083]    -1
GQWIQSRCEK [Peptide 88.0166]    1
KLNWASQIY [Peptide 1595.09]    1
MLVRFKCAK [Peptide 1587.30]    1

---

Biological target: DRB1*0301 (Homo sapiens, UniProt P01903+P01911, A100K/A102G/A103R/A169T/F55Y/I96L/K41T/L162R/M171V/P40S/Q125H/Q178H/Q39Y/R42S/S66N/T106N/T262R/W38E/Y61H)
Experiment: biochemical
Type: binding
pIC50: −log10 of the molar value. No end group written: not given here.
Quick list: pIC50 per entry.
Readout label: pIC50

HIEFTPTRTDTYACRV [Peptide 530.12]    4.52
QHSFNDDIFDLSEMI [Peptide 90.0152]    6.27
VEFMSFLTALKRFLQ [Peptide 89.0015]    6.46
AKALQAIELQMMLET [Peptide 89.0171]    5.83
LLEFIDDSMENSIQA [Peptide 90.0077]    6.29
TPEWIERQTVLQHSF [Peptide 89.0048]    7.47
YKTLFVDVTSTYHWT [Peptide 90.0241]    7.25
CIHSTATDLRTLQQM [Peptide 1543.45]    6.67
RNTFLDVVTIPNSVQ [Peptide 1601.39]    5.16
STSDDTVSATQIVRQ [Peptide 1601.31]    5.43
LKVLIQPYSIYAHLQ [Peptide 89.0098]    6.72
DWVMAIFGVNPTVAE [Peptide 89.0079]    6.37
RREVYDFAFRDLCIV [Peptide 1543.25]    4.96
AYGISFMELVRPFKS [Peptide 89.0060]    5.15
LSQRLNVCQDKILEH [Peptide 1601.21]    6.68
LVEVTLGEVPAAESPD [Peptide F160.17]    5.40
KTLIKPATLYAHIQC [Peptide 89.0083]    5.91

---

Target: DR1 (DRB1*0101) (Homo sapiens, UniProt P01903+P01911, A100R/D57E/F55L/F60I/F76Y/I96L/L162R/M171V/P40L/Q125E/R42F/V115G/Y59C)
Experiment: biochemical
Assay type: binding
Readout label: IC50 (nM)

CC(C)[C@H](NC(=O)[C@@H]1CCCN1C(=O)[C@H](CCCCN)NC(=O)[C@H](CO)NC(=O)[C@H](CC(N)=O)NC(=O)[C@H](CC(N)=O)NC(=O)[C@H](CO)NC(=O)[C@H](CO)NC(=O)[C@H](Cc1ccccc1)NC(=O)[C@H](CO)NC(=O)[C@@H]1CCCN1C(=O)[C@@H](N)CCCCN)C(=O)N[C@@H](CCC(=O)O)C(=O)N[C@@H](CC(=O)O)C(=O)N[C@@H](CCCCN)C(=O)O [Peptide 9014.0037]    22
CC[C@H](C)[C@H](NC(=O)[C@@H](NC(=O)[C@@H]1CCCN1C(=O)[C@@H](NC(=O)[C@@H](NC(=O)[C@H](CC(N)=O)NC(=O)CNC(=O)[C@H](CO)NC(=O)[C@H](CS)NC(=O)[C@@H](NC(=O)[C@H](CCCCN)NC(=O)[C@@H](N)CCCNC(=N)N)C(C)C)[C@@H](C)O)[C@@H](C)O)[C@@H](C)CC)C(=O)N[C@@H](Cc1c[nH]cn1)C(=O)N[C@@H](CC(C)C)C(=O)N[C@@H](CCCCN)C(=O)O [Peptide 1601.43]    1310
CC(C)[C@H](NC(=O)[C@@H]1CCCN1C(=O)[C@H](CCCCN)NC(=O)[C@H](CO)NC(=O)[C@H](CC(N)=O)NC(=O)[C@H](CC(N)=O)NC(=O)[C@H](CO)NC(=O)[C@H](CO)NC(=O)[C@H](Cc1ccc(O)cc1)NC(=O)[C@H](CO)NC(=O)[C@@H]1CCCN1C(=O)[C@@H](N)CCCCN)C(=O)N[C@@H](CCC(=O)O)C(=O)N[C@@H](CC(=O)O)C(=O)N[C@@H](CCCCN)C(=O)O [Peptide 9014.0043]    39
